- PROCEDURE_TEXT: yeast display, Sf9 membrane polyspecificity reagent, FACS + sequencing; frameworks hold sequencing errors
RECORDED_ENDPOINT: polyreactivity (PSR sort gate)

sequence_text=QVQLVESGGGLVQAGGSLRISCAASGRTLFGYAMGWYRQAPGKERELVAAITYGATSTYADSVKGRFTISRDNAKNTVYLQMNSLKPEDTAVYYCNAYTPTDGFDYWGQGTQVTVSS result="low polyreactivity"
sequence_text=QLQLEESGGGLVQAGGSLRLSCAAYGSIYYYNGMGWYRQAPAKERELVAAISSSGGRTYYADSVKGRFTISRDNENNTVYLQMNSLKPEDPAVYYCYDSGFGKTGFGYDYWGQGTQVTVSS result="low polyreactivity"
